% Inhibition reference
- Tested Target: T1, HA-GCN4 hAPRIL (amino acid residues 105-250) (human, UniProt O75888 105-250)
- T1 construct: Bought (R&D Systems); also called HA-tagged GCN4 human APRIL; HA-GCN4-huAPRIL; not shown: N-terminal HA tag; GCN4 isoleucine zipper oligomerization domain
- T1 sequence: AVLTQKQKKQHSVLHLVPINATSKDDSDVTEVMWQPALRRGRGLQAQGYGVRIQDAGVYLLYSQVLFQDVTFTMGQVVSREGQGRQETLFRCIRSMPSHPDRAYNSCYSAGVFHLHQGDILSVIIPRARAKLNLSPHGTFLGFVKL
- Test Protocol: blocking ELISA; blocked: human APRIL binding to human TACI-Fc
- Set-up: concentration or dose not given beside the values
- Procedure: FIGS. 19A-19B depict the antibody inhibition of APRIL binding to TNFSF receptors TACI (FIG. 19A) and BCMA (FIG. 19B). Assay is based on blocking ELISA using recombinant human APRIL (R&D Systems) and Human TACI-Fc. Inhibition was analyzed by non-linear regression using a four parameter fit. Recombinant TACI-Fc or BCMA-Fc was coated on 96 well plates in 0.1 M carbonate-bicarbonate buffer (pH 9.6), overnight at 4° C. […] ELISA signal was quantified by absorbance at 450 nm. […]

[
  {
    "Binder": "monoclonal antibody 3530 (antibody, mouse IgG2, V domains shown) VH: QVQLQQSGAELVRPGASVKLSCKASGYTFTDHEMHWVRQTPVHGLEWIGVIDPDTGDTTYNQKFKGKATLTADKSSSTAYMDLRSLTSEDSAVFYCTRWTGGDYWGHGTTLTVSS VL: DAVMTQTPLSLSVTIGQPASISCKSSQSLLYSDGKTYLNWFQQRPGQSPKRLMYQVSKLDPGIPDRFSGSGSETDFTLKISRVEAEDLGVYYCLQGTYYPYTFGSGTKLEIK",
    "Unit String": "%",
    "% Inhibition": 89
  },
  {
    "Binder": "monoclonal antibody 4540 (antibody, V domains shown, mouse-derived) VH: QVQLQQSGPELVKPGASVKISCKASGYTFADYYINWVKQRPGQGLEWIGWIFPGSGSTYYNEKFKGKATLTVDKSSSTAYMLLSSLTSEDSAVYFCARGDSGRAMDYWGQGTSVTVSS VL: DIQMTQSPSSLSASLGGKVTITCKASQDINKYIAWYQHKPGKGPRLLIHYTSTLQSGIPSRFSGSGSGRDYSFSISNLEPEDNATYYCLQYDNLLTFGAGTKLELK",
    "Unit String": "%",
    "% Inhibition": 65
  },
  {
    "Binder": "monoclonal antibody 3833 (antibody, V domains shown, mouse-derived) VH: QVQLQQSGAELVRPGTSVKMSCKAAGYTFTNYWIGWVKQRPGHGLEWIGDIYPGGIGGGYTKYNEKFKGKATLTADTSSSTAYMQLGSLTSEDSAIYFCSRSETGRAMDYWGQGTSVTVSS VL: DIQMTQSPSSLSASLGGKVTITCKASQDINKYIAWYQHKPGKGPRLLIHYTSTLKPGIPSRFSGSGSGRDYSFSISDLEPEDIATYYCLQYDNLNTFGGGTKLEIK",
    "Unit String": "%",
    "% Inhibition": 72
  },
  {
    "Binder": "monoclonal antibody 3631 (antibody, V domains shown, mouse-derived) VH: EIQLQQSGPELVKPGASVKVSCKASGYSFTDYNIYWVKQSHGKSLEWIGYIDPSNGGPGYNQKFRGKATLTVDKSSSTAFLHLNSLTSEDSAVYYCARRDNYGSGTMDYWGQGTSVTVSS VL: DIVMTQSQKFMSTSVGDRVSITCKASQNVGTDVSWYQQKPGKSPKPLIYWASNRFTGVPDRFIGSGSGTDFTLTISNVQSEDLADYFCEQYSIYPLTFGAGTKLELK",
    "Unit String": "%",
    "% Inhibition": 63
  },
  {
    "Binder": "monoclonal antibody 2218 (antibody, mouse IgG2, V domains shown) VH: DVQLQESGPGLVKPSQSLSLTCSVTGYSITSGYYWNWIRQFPGNKLEWMGYISYDGYNNYNPSLKNRISITRDTSKNQFFLKLNSVTTEDTATYYCANYYDYEDWYFGVWGTGTTVTVSS VL: DIVLTQSPASLAMSLGKRATISCRASESVSIIGTNSIHWYQQKPGQPPKLLIYHASNLETGVPARFSGSGSRTDFTLTIDPVEEDDVAIYYCLQSRKIPYTFGGGTKLEIK",
    "Unit String": "%",
    "% Inhibition": 40
  },
  {
    "Binder": "4237 (antibody, V domains shown, also called monoclonal antibody 4237) VH: QAHLKESGPGLVAPSQSLSITCTVSGFSLTDYDVHWVRQSPGKGLEWLGVIWNDGSTDYNTAFISRLTISKDNSKSQVFFKMNSLQADDTAIYYCARNWYGGYWFAYWGQGTLVTVSA VL: DIQMTQSPASLSASAGETVTITCRSSENIYSYLAWYQQKQGKSPQLLVYNANALAEGVPSRFSGSGSVTQFSLKINSLQPEDFGSYYCQHHYGTPFTFGSGTKLEIK",
    "Unit String": "%",
    "% Inhibition": 95
  },
  {
    "Binder": "3934 (antibody, V domains shown, also called monoclonal antibody 3934) VH: QVQLQQSGPELVKPGASVKLSCKAAGYIFTDYTINWVKQSPGQGLEWIGWIYPGSGNRKYNDKFKGKATMTADKSSSTAYMQLSSLTSEDSAVYFCARESNYVGYYAMDYWGQGTSVTVSS VL: DVLMTQTPLSLPVSLGDQASISCRSSQSVVNSNGNTYLEWYLQKPGQSPNLLIYKVSNRFSGVPDRFSGSGSGTDFTLKISRVEAEDLGVYYCFQGSHVPWTFGGGTKLEIK",
    "Unit String": "%",
    "% Inhibition": 96
  }
]

meta.source: patent US20170145086A1
